# testDetails: Toxicity in […] mouse assessed as mortality at cumulative dose of 100 mg/kg, ip measured after 48 hrs
# Assay type: organism-based
# Parameters: dose 100 mg/kg, route intraperitoneal
# experimentalConditions: in vivo, read-out: Activity
readoutKind: mortality at 48 h (%)
Number only, in %; omit the unit.

q: Quote mortality at 48 h reported for CC(C)Oc1cc(NC(=N)c2ccccn2)ccc1-c1ccc(-c2ccc(NC(=N)c3ccccn3)cc2OC(C)C)o1 please.
a: 80

###

# System: Trypanosoma cruzi
# testDetails: Antitrypanosomal activity against bloodstream forms of Trypanosoma cruzi YuYu after 24 hrs by light microscopy in presence of 50% mouse blood
# Assay type: functional, organism-based
readoutKind: IC50 (nM)
Number only, in nM; omit the unit.

q: Quote IC50 reported for CC(C)Oc1cc(NC(=N)c2ccccn2)ccc1-c1ccc(-c2ccc(NC(=N)c3ccccn3)cc2OC(C)C)o1 please.
a: 820

###

# Test system: Trypanosoma cruzi
# testDetails: Antitrypanosomal activity against bloodstream forms of Trypanosoma cruzi Y after 24 hrs by light microscopy in presence of 96% mouse blood
# Type: functional, organism-based
readoutKind: IC50 (nM)
Number only, in nM; omit the unit.

q: Quote IC50 reported for CC(C)Oc1cc(NC(=N)c2ccccn2)ccc1-c1ccc(-c2ccc(NC(=N)c3ccccn3)cc2OC(C)C)o1 please.
a: 60

###

# Test system: Trypanosoma cruzi
# testDetails: Antitrypanosomal activity against Trypanosoma cruzi Y bloodstream forms after 2 hrs by light microscopy
# Type: functional, organism-based
readoutKind: pIC50
Answer as the number alone; pIC50 is minus log10 of concentration in mol/L.

q: Quote pIC50 reported for CC(C)Oc1cc(NC(=N)c2ccccn2)ccc1-c1ccc(-c2ccc(NC(=N)c3ccccn3)cc2OC(C)C)o1 please.
a: 5.94

###

# Test system: Trypanosoma cruzi
# testDetails: Antitrypanosomal activity against Trypanosoma cruzi Y epimastigotes after 24 hrs by light microscopy
# Assay type: functional, organism-based
readoutKind: IC50
Answer by giving the amount and then stating its unit.

q: Quote IC50 reported for CC(C)Oc1cc(NC(=N)c2ccccn2)ccc1-c1ccc(-c2ccc(NC(=N)c3ccccn3)cc2OC(C)C)o1 please.
a: 0.07 µM

q: Quote IC50 reported for O=C(Cn1ccnc1[N+](=O)[O-])NCc1ccccc1 please.
a: 7.65 µM

###

# Test system: Trypanosoma cruzi
# testDetails: Antitrypanosomal activity against Trypanosoma cruzi 956 epimastigotes after 24 hrs by light microscopy
# Format: functional, organism-based
# experimentalConditions: Trypanosoma cruzi, 956, 24 h
Assign pIC50 to each entry below.
Answer as the number alone; pIC50 is minus log10 of concentration in mol/L.

q: Quote pIC50 reported for O=C(Cn1ccnc1[N+](=O)[O-])NCc1ccccc1 [BENZNIDAZOLE] please.
a: 5.40

q: Quote pIC50 reported for CC(C)Oc1cc(NC(=N)c2ccccn2)ccc1-c1ccc(-c2ccc(NC(=N)c3ccccn3)cc2OC(C)C)o1 please.
a: 6.80

###

# testDetails: Cytotoxicity against Swiss-Webster mouse cardiomyocytes after 24 hrs by MTT assay
# Assay type: cell-based, Cardiomyocyte
# experimentalConditions: read-out: LC50
readoutKind: CC50 at 24 h

q: Quote CC50 at 24 h reported for CC(C)Oc1cc(NC(=N)c2ccccn2)ccc1-c1ccc(-c2ccc(NC(=N)c3ccccn3)cc2OC(C)C)o1 please.
a: > 32 µM

###

# testDetails: Cardiotoxicity against Swiss-Webster mouse cardiomyocytes assessed as creatine kinase cardiac isotype level by MTT assay
# Assay type: toxicity, Heart, Cardiomyocyte
# experimentalConditions: read-out: LC50 (the source's name)
readoutKind: CC50

q: Quote CC50 reported for CC(C)Oc1cc(NC(=N)c2ccccn2)ccc1-c1ccc(-c2ccc(NC(=N)c3ccccn3)cc2OC(C)C)o1 please.
a: > 10.6 µM

All figures here come from ChEMBL document CHEMBL1649306.
